Data origin: ChEMBL document CHEMBL1629659

- assay: Drug concentration in healthy human epithelial lining fluid at 150 mg, iv […] measured after 24 hrs of third postdose by urea dilution method
- Format: ADME, organism-based
- condition: read-out: Drug uptake
Numbered stars: 1 amine (or outer) side, 2 acyl side, 3 side chain; on linkers, the order of the positions; unused ones are H or OH. Bridge positions count the residues as written; N and C are the ends. Square brackets hold non-standard residues; d marks the D form. Peptide text beside a SMILES is read from it. * marks the point of attachment. hTyr(3S-OH,4S-OH,3'-OSO3H) = N[C@H](C(=O)O)[C@H](O)[C@@H](O)c1ccc(O)c(OS(=O)(=O)O)c1; Orn(4R-OH,5R-OH) = O=C([C@H](C[C@@H](O)[C@@H](O)N[*:3])N[*:1])[*:2]; Pro(3S-OH,4S-Me) = C[C@H]1CN[C@H](C(=O)O)[C@H]1O; X1 = CCCCCOc1ccc(-c2cc(-c3ccc(C(=O)*)cc3)no2)cc1; Gln(3R-OH) = NC(=O)C[C@@H](O)[C@H](N)C(=O)O; Hyp = O=C(O)[C@@H]1C[C@@H](O)CN1
measured_metric: concentration at 24 h (ng/mL)
I only need the number, in ng/mL, no unit after it.

Query block: I would be grateful if you could share the reported concentration at 24 h for CCCCCOc1ccc(-c2cc(-c3ccc(C(=O)N[C@H]4C[C@@H](O)[C@@H](O)NC(=O)[C@@H]5[C@@H](O)[C@@H](C)CN5C(=O)[C@H]([C@H](O)CC(N)=O)NC(=O)[C@H]([C@H](O)[C@@H](O)c5ccc(O)c(OS(=O)(=O)O)c5)NC(=O)[C@@H]5C[C@@H](O)CN5C(=O)[C@H]([C@@H](C)O)NC4=O)cc3)no2)cc1 [MICAFUNGIN] (X1-[Orn(4R-OH,5R-OH)]T[Hyp][hTyr(3S-OH,4S-OH,3'-OSO3H)][Gln(3R-OH)][Pro(3S-OH,4S-Me)]; lactam 1-C) .
Result block: 430

====

- assay: Drug concentration in healthy human plasma at 150 mg, iv QD measured after 4 hrs of third postdose by high-pressure liquid chromatography method
- condition: read-out: Drug uptake
Numbered stars: 1 amine (or outer) side, 2 acyl side, 3 side chain; on linkers, the order of the positions; unused ones are H or OH. Bridge positions count the residues as written; N and C are the ends. Square brackets hold non-standard residues; d marks the D form. Peptide text beside a SMILES is read from it. * marks the point of attachment. hTyr(3S-OH,4S-OH,3'-OSO3H) = N[C@H](C(=O)O)[C@H](O)[C@@H](O)c1ccc(O)c(OS(=O)(=O)O)c1; Orn(4R-OH,5R-OH) = O=C([C@H](C[C@@H](O)[C@@H](O)N[*:3])N[*:1])[*:2]; Pro(3S-OH,4S-Me) = C[C@H]1CN[C@H](C(=O)O)[C@H]1O; X1 = CCCCCOc1ccc(-c2cc(-c3ccc(C(=O)*)cc3)no2)cc1; Gln(3R-OH) = NC(=O)C[C@@H](O)[C@H](N)C(=O)O; Hyp = O=C(O)[C@@H]1C[C@@H](O)CN1
measured_metric: concentration at 4 h (ng/mL)
I only need the number, in ng/mL, no unit after it.

Query block: I would be grateful if you could share the reported concentration at 4 h for CCCCCOc1ccc(-c2cc(-c3ccc(C(=O)N[C@H]4C[C@@H](O)[C@@H](O)NC(=O)[C@@H]5[C@@H](O)[C@@H](C)CN5C(=O)[C@H]([C@H](O)CC(N)=O)NC(=O)[C@H]([C@H](O)[C@@H](O)c5ccc(O)c(OS(=O)(=O)O)c5)NC(=O)[C@@H]5C[C@@H](O)CN5C(=O)[C@H]([C@@H](C)O)NC4=O)cc3)no2)cc1 [MICAFUNGIN] (X1-[Orn(4R-OH,5R-OH)]T[Hyp][hTyr(3S-OH,4S-OH,3'-OSO3H)][Gln(3R-OH)][Pro(3S-OH,4S-Me)]; lactam 1-C) .
Result block: 14800

====

- assay: Plasma concentration in healthy human at 150 mg, iv […] measured after 24 hrs of third postdose
- Assay type: ADME, organism-based
Numbered stars: 1 amine (or outer) side, 2 acyl side, 3 side chain; on linkers, the order of the positions; unused ones are H or OH. Bridge positions count the residues as written; N and C are the ends. Square brackets hold non-standard residues; d marks the D form. Peptide text beside a SMILES is read from it. * marks the point of attachment. hTyr(3S-OH,4S-OH,3'-OSO3H) = N[C@H](C(=O)O)[C@H](O)[C@@H](O)c1ccc(O)c(OS(=O)(=O)O)c1; Orn(4R-OH,5R-OH) = O=C([C@H](C[C@@H](O)[C@@H](O)N[*:3])N[*:1])[*:2]; Pro(3S-OH,4S-Me) = C[C@H]1CN[C@H](C(=O)O)[C@H]1O; X1 = CCCCCOc1ccc(-c2cc(-c3ccc(C(=O)*)cc3)no2)cc1; Gln(3R-OH) = NC(=O)C[C@@H](O)[C@H](N)C(=O)O; Hyp = O=C(O)[C@@H]1C[C@@H](O)CN1
measured_metric: concentration at 24 h (ng/mL)
I only need the number, in ng/mL, no unit after it.

Query block: I would be grateful if you could share the reported concentration at 24 h for CCCCCOc1ccc(-c2cc(-c3ccc(C(=O)N[C@H]4C[C@@H](O)[C@@H](O)NC(=O)[C@@H]5[C@@H](O)[C@@H](C)CN5C(=O)[C@H]([C@H](O)CC(N)=O)NC(=O)[C@H]([C@H](O)[C@@H](O)c5ccc(O)c(OS(=O)(=O)O)c5)NC(=O)[C@@H]5C[C@@H](O)CN5C(=O)[C@H]([C@@H](C)O)NC4=O)cc3)no2)cc1 [MICAFUNGIN] (X1-[Orn(4R-OH,5R-OH)]T[Hyp][hTyr(3S-OH,4S-OH,3'-OSO3H)][Gln(3R-OH)][Pro(3S-OH,4S-Me)]; lactam 1-C) .
Result block: 4670

====

- assay: AUC ( 0 to 24 hrs) in healthy human plasma at 150 mg, […]
- Format: ADME, organism-based
- Parameters: dose 150 mg, time < 24 hr, route intravenous
- condition: iv
Numbered stars: 1 amine (or outer) side, 2 acyl side, 3 side chain; on linkers, the order of the positions; unused ones are H or OH. Bridge positions count the residues as written; N and C are the ends. Square brackets hold non-standard residues; d marks the D form. Peptide text beside a SMILES is read from it. * marks the point of attachment. hTyr(3S-OH,4S-OH,3'-OSO3H) = N[C@H](C(=O)O)[C@H](O)[C@@H](O)c1ccc(O)c(OS(=O)(=O)O)c1; Orn(4R-OH,5R-OH) = O=C([C@H](C[C@@H](O)[C@@H](O)N[*:3])N[*:1])[*:2]; Pro(3S-OH,4S-Me) = C[C@H]1CN[C@H](C(=O)O)[C@H]1O; X1 = CCCCCOc1ccc(-c2cc(-c3ccc(C(=O)*)cc3)no2)cc1; Gln(3R-OH) = NC(=O)C[C@@H](O)[C@H](N)C(=O)O; Hyp = O=C(O)[C@@H]1C[C@@H](O)CN1
measured_metric: AUC at 24 h (µg·h/mL)
I only need the number, in µg·h/mL, no unit after it.

Query block: I would be grateful if you could share the reported AUC at 24 h for CCCCCOc1ccc(-c2cc(-c3ccc(C(=O)N[C@H]4C[C@@H](O)[C@@H](O)NC(=O)[C@@H]5[C@@H](O)[C@@H](C)CN5C(=O)[C@H]([C@H](O)CC(N)=O)NC(=O)[C@H]([C@H](O)[C@@H](O)c5ccc(O)c(OS(=O)(=O)O)c5)NC(=O)[C@@H]5C[C@@H](O)CN5C(=O)[C@H]([C@@H](C)O)NC4=O)cc3)no2)cc1 [MICAFUNGIN] (X1-[Orn(4R-OH,5R-OH)]T[Hyp][hTyr(3S-OH,4S-OH,3'-OSO3H)][Gln(3R-OH)][Pro(3S-OH,4S-Me)]; lactam 1-C) .
Result block: 220

====

- assay: Clearance at steady state in healthy human plasma at 150 mg, iv […]
- Assay type: ADME, organism-based
Numbered stars: 1 amine (or outer) side, 2 acyl side, 3 side chain; on linkers, the order of the positions; unused ones are H or OH. Bridge positions count the residues as written; N and C are the ends. Square brackets hold non-standard residues; d marks the D form. Peptide text beside a SMILES is read from it. * marks the point of attachment. hTyr(3S-OH,4S-OH,3'-OSO3H) = N[C@H](C(=O)O)[C@H](O)[C@@H](O)c1ccc(O)c(OS(=O)(=O)O)c1; Orn(4R-OH,5R-OH) = O=C([C@H](C[C@@H](O)[C@@H](O)N[*:3])N[*:1])[*:2]; Pro(3S-OH,4S-Me) = C[C@H]1CN[C@H](C(=O)O)[C@H]1O; X1 = CCCCCOc1ccc(-c2cc(-c3ccc(C(=O)*)cc3)no2)cc1; Gln(3R-OH) = NC(=O)C[C@@H](O)[C@H](N)C(=O)O; Hyp = O=C(O)[C@@H]1C[C@@H](O)CN1
measured_metric: clearance (mL/min)
I only need the number, in mL/min, no unit after it.

Query block: I would be grateful if you could share the reported clearance for CCCCCOc1ccc(-c2cc(-c3ccc(C(=O)N[C@H]4C[C@@H](O)[C@@H](O)NC(=O)[C@@H]5[C@@H](O)[C@@H](C)CN5C(=O)[C@H]([C@H](O)CC(N)=O)NC(=O)[C@H]([C@H](O)[C@@H](O)c5ccc(O)c(OS(=O)(=O)O)c5)NC(=O)[C@@H]5C[C@@H](O)CN5C(=O)[C@H]([C@@H](C)O)NC4=O)cc3)no2)cc1 [MICAFUNGIN] (X1-[Orn(4R-OH,5R-OH)]T[Hyp][hTyr(3S-OH,4S-OH,3'-OSO3H)][Gln(3R-OH)][Pro(3S-OH,4S-Me)]; lactam 1-C) .
Result block: 11.7
